Target: Holo-[acyl-carrier-protein] synthase (Bacillus subtilis (strain 168))
Sequence (P96618 whole entry): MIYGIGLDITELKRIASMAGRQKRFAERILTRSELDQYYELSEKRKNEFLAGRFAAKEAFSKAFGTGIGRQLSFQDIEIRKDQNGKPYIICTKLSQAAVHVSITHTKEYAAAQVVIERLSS
Assay: In vitro inhibitory activity against acyl carrier protein synthase (AcpS) in Bacillus subtilis GST-Acp-HTRFassay
Reported endpoint: IC50 (µM)
Field format: number, assumed µM, no unit text.

For the molecule shown here, `Cc1ccc(/N=C/c2nc(-c3cccc(OC(F)(F)F)c3)oc2O)c(C(=O)O)c1` , give the reported IC50.
4.4

* * *

Kindly supply the reported pIC50 values for the records listed here.
molecular target: Holo-[acyl-carrier-protein] synthase (Bacillus subtilis (strain 168)); assay: In vitro inhibitory activity against Holo-[acyl-carrier-protein] synthase was determined using Bacillus subtilis GST-Acp-HTRFassay
Remember, pIC50 is on a log scale: it is -log10 of the molar concentration.

For the molecule shown here, `O=C(O)c1ccccc1/N=C/c1nc(-c2ccc(Cl)cc2)oc1O` , give the reported pIC50.
4.82

For the molecule shown here, `Cc1ccc(/N=C/c2nc(-c3ccc(C(F)(F)F)cc3)oc2O)c(C(=O)O)c1` , give the reported pIC50.
6.08

For the molecule shown here, `O=C(O)c1cc(I)ccc1/N=C/c1nc(-c2ccc(Cl)cc2)oc1O` , give the reported pIC50.
5.89

For the molecule shown here, `O=C(O)c1cc(Cl)ccc1/N=C/c1nc(-c2cccc(OC(F)(F)F)c2)oc1O` , give the reported pIC50.
4.70

For the molecule shown here, `O=C(O)c1cc(Cl)ccc1/N=C/c1nc(-c2ccc(C(F)(F)F)c(F)c2)oc1O` , give the reported pIC50.
5.96

For the molecule shown here, `O=C(O)c1cc(Br)ccc1/N=C/c1nc(-c2cccc(OC(F)(F)F)c2)oc1O` , give the reported pIC50.
4.82

For the molecule shown here, `O=C(O)c1cc(Br)ccc1/N=C/c1nc(-c2ccc(Cl)cc2)oc1O` , give the reported pIC50.
5.47

For the molecule shown here, `O=C(O)c1cc(Br)ccc1/N=C/c1nc(-c2ccc(C(F)(F)F)c(F)c2)oc1O` , give the reported pIC50.
5.82

For the molecule shown here, `O=C(O)c1cc(F)ccc1/N=C/c1nc(-c2ccc(Cl)cc2)oc1O` , give the reported pIC50.
5.68

For the molecule shown here, `Cc1ccc(/N=C/c2nc(-c3ccc(C(F)(F)F)c(F)c3)oc2O)c(C(=O)O)c1` , give the reported pIC50.
6.57

For the molecule shown here, `O=C(O)c1cc(F)ccc1/N=C/c1nc(-c2ccc(C(F)(F)F)cc2)oc1O` , give the reported pIC50.
5.72

For the molecule shown here, `CC(=O)Nc1ccc(/N=C/c2nc(-c3ccc(C(F)(F)F)c(F)c3)oc2O)c(C(=O)O)c1` , give the reported pIC50.
6.89

For the molecule shown here, `O=C(O)c1cc(Br)c(Cl)cc1/N=C/c1nc(-c2ccc(C(F)(F)F)cc2)oc1O` , give the reported pIC50.
5.70

* * *

target: Holo-[acyl-carrier-protein] synthase (Bacillus subtilis (strain 168), UniProt P96618); assay: In vitro inhibitory activity against Holo-[acyl-carrier-protein] synthase was determined using Bacillus subtilis GST-Acp-HTRFassay
Reported endpoint: IC50

Could you share what IC50 was measured for `O=C(O)c1cc(Br)c(Cl)cc1/N=C/c1nc(-c2ccc(Cl)cc2)oc1O` , tested on Holo-[acyl-carrier-protein] synthase (Bacillus subtilis (strain 168), UniProt P96618)?
> 20 µM

Could you share what IC50 was measured for `COc1ccc(-c2nc(/C=N/c3ccc(F)cc3C(=O)O)c(O)o2)cc1` , tested on Holo-[acyl-carrier-protein] synthase (Bacillus subtilis (strain 168), UniProt P96618)?
> 20 µM

Could you share what IC50 was measured for `O=C(O)c1ccccc1/N=C/c1nc(-c2ccccc2)oc1O` , tested on Holo-[acyl-carrier-protein] synthase (Bacillus subtilis (strain 168), UniProt P96618)?
> 20 µM
